PROCEDURE_DETAILS: Pharmacokinetic evaluation after intravenous or gavage administration to dogs
Format: in vivo, Beagle dogs
MEASUREMENT_SETUP: beagle, dog, plasma, po, gavage group, dose 5 mg/kg
VALUE_KIND: AUC(0-t) (ng·h/mL)
Kindly provide the numeric value in ng·h/mL only, without the unit symbol.

Quickly give me recorded AUC(0-t) for `O=S(=O)(c1cccc(F)c1)n1cc(C(F)F)c2c(N3CCNCC3)cccc21`
5680

* * *

Provide the reported CLint scaled at 1 μM of each item.
PROCEDURE_DETAILS: Stability in human liver microsomes
Assay type: in vitro ADME
MEASUREMENT_SETUP: liver microsomes; human liver microsome 0.5 mg/mL, 1 μM compound, 37° C., pH 7.4; read-out: Intrinsic clearance
Kindly provide the numeric value in mL/min/kg only, without the unit symbol.

Quickly give me recorded CLint scaled at 1 μM for `O=S(=O)(c1ccccc1F)n1cc(C(F)F)c2c(N3CCNCC3)cccc21`
13.1

Quickly give me recorded CLint scaled at 1 μM for `O=S(=O)(c1ccccc1Br)n1cc(C(F)F)c2c(N3CCNCC3)cccc21`
11.1

Quickly give me recorded CLint scaled at 1 μM for `O=S(=O)(c1cccc(F)c1)n1cc(C(F)F)c2c(N3CCNCC3)cccc21`
7.99

Quickly give me recorded CLint scaled at 1 μM for `O=S(=O)(c1ccccc1Cl)n1cc(C(F)F)c2c(N3CCNCC3)cccc21`
13.2
